Reference source for all entries: PubChem BioAssay

# assay.protocol: small-molecule microarray binders of probe aEGFR, primary screen, biochemical, biotinylated probe, 635/667 nm fluorescence (AID 1097);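 also: probe is a biotinylated anti-EGFR antibody binding compounds printed on slides; score combines fluorescence near 667 nm and signal to noise of each spot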
# experimental.conditions: higher = more signal
composite z-score values by entry
assay.metric: composite z-score

[
  {
    "compound": "C=CC[C@]1(C(=O)NCCN2CCOCC2)N=C(c2ccc(OCCCO)cc2)O[C@H]1c1ccccc1CN=[N+]=[N-]",
    "experimental.result": 0.159
  },
  {
    "compound": "CC(CO)N1C(=O)[C@@H]2[C@H]3C(=O)OCC=C[C@H]3OC23C=CCN(Cc2ccccc2)C(=O)[C@@H]13 (stereo partly drawn)",
    "experimental.result": -0.206
  },
  {
    "compound": "COc1ccc(C(O)C2C=CC3C(=O)N(c4ccccc4)C(=O)C3N2Nc2ccc([N+](=O)[O-])cc2)cc1 (stereo not drawn)",
    "experimental.result": 0.239
  }
]

====

# assay.protocol: fission yeast growth modulation, primary screen, strain 972, OD600, 24 h, no modulator (AID 1090);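 also: basal condition with compound alone and no growth modifier present; test concentration not given here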
# experimental.conditions: S. pombe 972 growth, higher = more signal, called active from +8 up or from −8 down
just bin them by z-score: low-valued (below -0.8), mid-valued (-0.8 to below 0.6), high-valued (0.6 or more)

[
  {
    "molecule": "C=CCC(OC(C)=O)[C@@H]1[C@@H](N(Cc2cc3ccccc3o2)C(=O)c2ccc(-c3ccccc3)cc2)c2cc(OCCCO)ccc2N1C(=O)c1ccc2ccccc2c1 (some centres undefined)",
    "assigned.category": "mid-valued"
  },
  {
    "molecule": "O=C1C2C=CC(C(O)c3ccccc3)N(Nc3ccccc3F)C2C(=O)N1c1ccccc1 (centres undefined)",
    "assigned.category": "high-valued"
  },
  {
    "molecule": "C=CC[C@]1(C(=O)O)COC(c2ccc(OCCCO)cc2)=N1",
    "assigned.category": "mid-valued"
  },
  {
    "molecule": "O=C1OCCC=C[C@H]2OC34C=CCN(Cn5nnc6ccccc65)C(=O)[C@H]3N(CCCCCCO)C(=O)[C@@H]4C12 (some centres undefined)",
    "assigned.category": "mid-valued"
  },
  {
    "molecule": "COc1ccc(CCN2C(=O)[C@@]3(Cc4ccccc42)c2ccccc2C(=O)N(Cc2ccccc2OC)[C@H]3c2ccc(CO)cc2)cc1",
    "assigned.category": "low-valued"
  },
  {
    "molecule": "COCCOC(=O)N1C(=O)[C@@]2(c3cc(C#Cc4ccc(OC)cc4)ccc31)[C@H](c1ccccc1OCCO)N1[C@H](c3ccccc3)[C@H](c3ccccc3)OC(=O)[C@H]1[C@@H]2C(=O)N1CCCCCCC1",
    "assigned.category": "mid-valued"
  },
  {
    "molecule": "CCCNC(=O)[C@@H]1c2ccccc2C(=O)N(C(C)C)[C@H]1c1ccc(CO)cc1",
    "assigned.category": "high-valued"
  },
  {
    "molecule": "O=C1O[C@H](c2ccccc2)[C@H](c2ccccc2)N2[C@H]1[C@@H](C(=O)Nc1nc3ccccc3s1)[C@]1(C(=O)Nc3ccc(C#CCCO)cc31)[C@H]2c1ccc(O)cc1",
    "assigned.category": "high-valued"
  },
  {
    "molecule": "CC(C)N1C(=O)C[C@@](C(=O)NCCCN(C)C)(c2ccc([N+](=O)[O-])cc2)[C@H]1c1ccc(CO)cc1",
    "assigned.category": "low-valued"
  },
  {
    "molecule": "C=CCC(OC(C)=O)[C@@H]1[C@@H](N(Cc2cc3ccccc3o2)C(=O)c2ccc(C)cc2)c2cc(OCCCO)ccc2N1C(=O)Cc1ccc(OC)cc1 (some centres undefined)",
    "assigned.category": "low-valued"
  },
  {
    "molecule": "COc1ccc([Si](C)(C)[C@H]2[C@H](CCO)O[C@@]3(C(=O)N(Cc4cccc(N5C(=O)COc6ccccc65)c4)c4ccccc43)[C@@H]2C)cc1",
    "assigned.category": "low-valued"
  },
  {
    "molecule": "O=C(CS)NCCCCCCNC(=O)[C@H]1C[C@H]2C(=O)N[C@@H](Cc3ccccc3)C(=O)N2[C@H]1c1ccc(O)cc1",
    "assigned.category": "high-valued"
  },
  {
    "molecule": "CC(C)C(=C=CC[C@H](O)c1ccc(OCCO)cc1)C[C@H](O)c1ccccn1",
    "assigned.category": "low-valued"
  },
  {
    "molecule": "CN(C)CCCCNC(=O)[C@@H]1C[C@@H]2C(=O)N[C@@H](Cc3ccccc3)C(=O)N2[C@@H]1c1cccc(OCCO)c1",
    "assigned.category": "low-valued"
  }
]
